# system: beta-catenin/TCF4 engagement (Homo sapiens)
# Construct: expressed in transfected cells; host or cells: HEK293
# Sequence (P35222 1-781): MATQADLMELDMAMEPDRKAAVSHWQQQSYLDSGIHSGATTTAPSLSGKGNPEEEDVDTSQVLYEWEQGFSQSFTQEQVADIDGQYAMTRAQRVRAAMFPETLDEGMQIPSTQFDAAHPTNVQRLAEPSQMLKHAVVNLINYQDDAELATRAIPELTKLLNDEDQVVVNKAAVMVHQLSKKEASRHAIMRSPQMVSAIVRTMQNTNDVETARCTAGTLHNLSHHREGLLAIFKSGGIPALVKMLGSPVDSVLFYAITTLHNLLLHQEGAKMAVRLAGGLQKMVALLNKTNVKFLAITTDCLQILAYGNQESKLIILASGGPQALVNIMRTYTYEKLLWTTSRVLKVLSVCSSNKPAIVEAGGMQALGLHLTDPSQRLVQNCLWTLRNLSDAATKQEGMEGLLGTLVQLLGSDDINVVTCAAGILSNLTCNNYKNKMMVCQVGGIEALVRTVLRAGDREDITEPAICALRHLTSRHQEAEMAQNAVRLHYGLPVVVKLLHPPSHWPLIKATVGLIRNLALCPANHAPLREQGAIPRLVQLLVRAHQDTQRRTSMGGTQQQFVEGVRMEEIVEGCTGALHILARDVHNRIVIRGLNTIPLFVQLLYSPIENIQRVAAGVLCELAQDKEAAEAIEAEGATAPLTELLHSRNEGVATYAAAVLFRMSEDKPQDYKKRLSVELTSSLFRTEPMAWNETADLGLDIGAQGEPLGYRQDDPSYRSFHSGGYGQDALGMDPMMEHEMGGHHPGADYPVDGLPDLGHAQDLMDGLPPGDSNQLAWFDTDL
# procedure.summary: Nano-BRET target engagement assay (B-cat-Halo & TCF4-Luc in HEK293 cells)
# Assay type: cell-based
# run.parameters: absolute IC50; read-out: NanoBRET Abs IC50
pIC50: −log10 of the molar value.
Recorded pIC50 values for a group of compounds are listed next.
attribute.measured: pIC50

>  <compound>
CC(=O)N1CCC[C@]12CC=CCCCC1(CCCC=CCCCOC(=O)N3CC[C@@](C(=O)N[C@@H](Cc4ccsc4)C(=O)N[C@@H](Cc4csc5ccccc45)C(=O)N[C@@H](CCC(N)=O)C(N)=O)(C3)NC(=O)[C@H](CC(=O)N3CCOCC3)NC(=O)[C@H](Cc3ccccc3)NC(=O)[C@H](C)NC(=O)[C@H](C)NC(=O)[C@H](CC(=O)O)NC(=O)[C@H](CC(=O)O)NC1=O)NC(=O)[C@H](CC(C)(C)C)NC(=O)[C@H](CC(=O)O)NC2=O (some centres unmarked)

>  <system>
beta-catenin/TCF4 engagement (Homo sapiens)

>  <attribute.measured>
pIC50

>  <measured.value>
4.67

$$$$
>  <compound>
CC(=O)N1CCC[C@]12CC=CCCCC1(CCCC=CCCCOC(=O)N3CC[C@@](C(=O)N[C@@H](Cc4ccccc4Cl)C(=O)N[C@@H](Cc4csc5ccccc45)C(=O)N[C@H](C(N)=O)[C@@H](C)O)(C3)NC(=O)[C@H](CC(C)C)NC(=O)[C@H](Cc3ccccc3)NC(=O)[C@H](C)NC(=O)[C@H](C)NC(=O)[C@H](CC(=O)O)NC(=O)[C@H](CC(=O)O)NC1=O)NC(=O)[C@H](CC1CCCCC1)NC(=O)[C@H](CC(=O)O)NC2=O (some centres unmarked)

>  <system>
beta-catenin/TCF4 engagement (Homo sapiens)

>  <attribute.measured>
pIC50

>  <measured.value>
4.74

$$$$

Cited source: patent US20240116985A1
